- system under test: Delta-type opioid receptor (Homo sapiens, UniProt P41143)
- Sequence (P41143 whole entry): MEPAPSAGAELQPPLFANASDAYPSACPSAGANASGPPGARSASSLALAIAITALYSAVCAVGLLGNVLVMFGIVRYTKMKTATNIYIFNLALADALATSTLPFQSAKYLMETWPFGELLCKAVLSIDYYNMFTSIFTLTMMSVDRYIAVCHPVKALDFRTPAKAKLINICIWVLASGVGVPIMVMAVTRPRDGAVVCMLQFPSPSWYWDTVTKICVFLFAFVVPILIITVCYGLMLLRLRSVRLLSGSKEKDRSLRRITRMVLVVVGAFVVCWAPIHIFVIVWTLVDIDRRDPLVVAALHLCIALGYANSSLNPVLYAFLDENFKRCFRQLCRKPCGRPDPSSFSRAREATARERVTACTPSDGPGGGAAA
- assay name: Displacement of [3H]bremazocine from human delta opioid receptor expressed in CHO cells in presence of high sodium by SPA
observable: Ki (nM)
Answer with a number only, understood to be in nM.

CC(C)NC(=O)c1ccc(Oc2ccc(CNCCc3ccccc3)cc2)nc1    2410

API: the following record is the query input.
Problem: Entry under review: CNC(=O)c1ccc(Oc2ccc(CNCCc3ccccc3)cc2)nc1 . Reported Ki?
Solution: 718

----------
- system under test: Delta-type opioid receptor (Homo sapiens)
- assay name: Displacement of [3H]bremazocine from human delta opioid receptor expressed in CHO cells in presence of high sodium by SPA
- Format: cell-based
observable: Ki (nM)

Consider the reported Ki for these compounds:
N=C(N)c1ccc(Oc2ccc(CNCCc3ccccc3)cc2)nc1    215
CNC(=N)c1ccc(Oc2ccc(CNCCc3ccccc3)cc2)nc1    3460

I: NC(=O)c1ccc(Oc2ccc(CCNCc3ccccc3)cc2)nc1
II: CCNC(=O)c1ccc(Oc2ccc(CNCCc3ccccc3)cc2)nc1
Problem: Between I and II , which one shows the smaller Ki number? # reply format: chosen label
Solution: I
